TEST_TARGET: T1, Sub1 (Saccharomyces cerevisiae, UniProt P54000 1-292)
T1 sequence: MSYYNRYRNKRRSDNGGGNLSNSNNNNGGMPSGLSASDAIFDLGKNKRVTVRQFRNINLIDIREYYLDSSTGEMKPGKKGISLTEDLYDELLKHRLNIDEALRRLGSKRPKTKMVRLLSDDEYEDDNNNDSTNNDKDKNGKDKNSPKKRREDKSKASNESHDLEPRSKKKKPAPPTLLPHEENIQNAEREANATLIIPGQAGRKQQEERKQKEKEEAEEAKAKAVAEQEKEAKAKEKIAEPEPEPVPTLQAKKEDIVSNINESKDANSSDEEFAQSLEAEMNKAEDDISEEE
ASSAY_TEXT: fluorescence anisotropy
REPORTED_ENDPOINT: pKd
To interpret pKd, take it as minus log10 of a concentration measured in moles per litre.

Find the recorded pKd belonging to GAGCTGGGGTGAGCTGGGCTGAGCTGGGGTGAGCTGGGCTGAGCT (structured_DNA) [SµG (FAM)] and report it.
8.06
